# maps each entry to its pKa
test.details: Dissociation constant, pKa of the compound by UV metric method
Assay type: physicochemical
Lab note: write the figure by itself, no unit.

[[record]]
mol = "Cc1c(N2CC[C@@H]([C@H](C)N)C2)c(F)cc2c(C(=O)O)cc(=O)n(C3CC3)c12"
endpoint_value = 2.2


Next:
Reported pKa for `Cc1c(N2CC[C@@H]([C@H](C)N)C2)c(F)cc2c(O)cc(=O)n(C3CC3)c12` was 5.7

----------
test.details: in vivo
conditions: mouse, po, 10 mg/kg
property.measured: Tmax at 24 h
For clarity, give the value followed by its unit.

Reported Tmax at 24 h for `O=C(O)c1cn(C2CC2)c2cc(N3CCNCC3)c(F)cc2c1=O` was 15 min
